Taken from ChEMBL document CHEMBL3400108.

Target: Tyrosine-protein phosphatase non-receptor type 11 (Homo sapiens) (UniProt Q06124)
Sequence (whole entry): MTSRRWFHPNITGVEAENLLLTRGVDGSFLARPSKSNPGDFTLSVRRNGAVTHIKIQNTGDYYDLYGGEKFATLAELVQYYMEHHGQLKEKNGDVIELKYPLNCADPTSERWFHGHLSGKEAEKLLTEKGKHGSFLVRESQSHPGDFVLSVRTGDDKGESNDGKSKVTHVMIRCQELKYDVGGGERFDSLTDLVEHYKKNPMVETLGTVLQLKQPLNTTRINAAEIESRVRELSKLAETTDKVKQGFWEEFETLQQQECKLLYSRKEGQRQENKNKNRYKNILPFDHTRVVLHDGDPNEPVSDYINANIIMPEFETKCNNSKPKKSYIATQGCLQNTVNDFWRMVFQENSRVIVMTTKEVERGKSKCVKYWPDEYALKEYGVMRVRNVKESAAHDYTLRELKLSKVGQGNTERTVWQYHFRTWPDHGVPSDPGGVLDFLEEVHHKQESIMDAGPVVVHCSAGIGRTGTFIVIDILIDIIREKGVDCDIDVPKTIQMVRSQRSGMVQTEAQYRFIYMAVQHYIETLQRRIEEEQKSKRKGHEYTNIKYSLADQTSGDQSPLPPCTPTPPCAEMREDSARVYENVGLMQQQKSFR
Test: Inhibition of SHP2 (unknown origin) at 100 uM
Non-standard residues stand in square brackets, D forms with d. Residues, ends and D or L forms follow the SMILES beside them. Groups on a side chain read outwards from the residue. *: point of attachment. Phe(4-Br) = N[C@@H](Cc1ccc(Br)cc1)C(=O)O; Phe(4-Cl) = N[C@@H](Cc1ccc(Cl)cc1)C(=O)O; 2Nal = N[C@@H](Cc1ccc2ccccc2c1)C(=O)O; NEt2 = CCN(CC)*
Readout kind: inhibition (%)
Give the value, in units of %, as a plain number.

Answered cases to consult:
Molecule: CCN(CC)C(=O)[C@H](Cc1ccc2ccccc2c1)NC(=O)[C@H](CC(C)C)NC(=O)[C@@H](NC(=O)[C@@H](N)COC(=O)[C@H](CC(C)C)NC(C)=O)C(C)C (H-S([Leu-Ac])VL[2Nal]-NEt2)
Test target: Tyrosine-protein phosphatase non-receptor type 11 (Homo sapiens) (UniProt Q06124)
Observed result: 93
--
Molecule: CCN(CC)C(=O)[C@H](Cc1ccccc1)NC(=O)[C@H](CC(C)C)NC(=O)[C@@H](NC(=O)[C@@H](N)COC(=O)[C@@H]1CCCN1C(C)=O)C(C)C (H-S([Pro-Ac])VLF-NEt2)
Test target: Tyrosine-protein phosphatase non-receptor type 11 (Homo sapiens) (UniProt Q06124)
Observed result: 95
--
Molecule: CCN(CC)C(=O)[C@H](Cc1ccc(OC)cc1)NC(=O)[C@H](CC(C)C)NC(=O)[C@@H](NC(=O)[C@@H](N)COC(=O)[C@H](CC(C)C)NC(C)=O)C(C)C (H-S([Leu-Ac])VLY(Me)-NEt2)
Test target: Tyrosine-protein phosphatase non-receptor type 11 (Homo sapiens) (UniProt Q06124)
Observed result: 92
--
Molecule: CCN(CC)C(=O)[C@H](Cc1ccc(Cl)cc1)NC(=O)[C@H](CC(C)C)NC(=O)[C@@H](NC(=O)[C@@H](N)COC(=O)[C@@H]1CCCN1C(C)=O)C(C)C (H-S([Pro-Ac])VL[Phe(4-Cl)]-NEt2)
Test target: Tyrosine-protein phosphatase non-receptor type 11 (Homo sapiens) (UniProt Q06124)
Observed result: 88
--
Molecule: CCN(CC)C(=O)[C@H](Cc1ccc(Cl)cc1)NC(=O)[C@H](CC(C)C)NC(=O)[C@@H](NC(=O)[C@@H](N)COC(=O)[C@H](CC(C)C)NC(C)=O)C(C)C (H-S([Leu-Ac])VL[Phe(4-Cl)]-NEt2)
Test target: Tyrosine-protein phosphatase non-receptor type 11 (Homo sapiens) (UniProt Q06124)
Observed result: 89
--
Molecule: CCN(CC)C(=O)[C@H](Cc1ccc(Br)cc1)NC(=O)[C@H](CC(C)C)NC(=O)[C@@H](NC(=O)[C@@H](N)COC(=O)[C@H](CC(C)C)NC(C)=O)C(C)C (H-S([Leu-Ac])VL[Phe(4-Br)]-NEt2)
Test target: Tyrosine-protein phosphatase non-receptor type 11 (Homo sapiens) (UniProt Q06124)
Observed result: 96

Now look at this one.
Data request: Checklist item: inhibition tested on Tyrosine-protein phosphatase non-receptor type 11 (Homo sapiens) (UniProt Q06124), entry CCN(CC)C(=O)[C@H](Cc1ccc(Br)cc1)NC(=O)[C@H](CC(C)C)NC(=O)[C@@H](NC(=O)[C@@H](N)COC(=O)[C@@H]1CCCN1C(C)=O)C(C)C (H-S([Pro-Ac])VL[Phe(4-Br)]-NEt2) , value?
Data returned: 86
